experiment: Microsomal stability assay, rat liver microsomes; details: rat liver microsomes;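 note: rat liver microsomes (0.25 mg/mL) with about 1 µM compound plus 1 mM NADPH, pH 7.4, 37 °C for 30 min, parent left measured by LC-MS/MS against 0 min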
Measured RLM values are reported for all entries that follow.
Answer format: numeric, µL/min/mg implied, no suffix.

Check out these entries, answers already filled in.
Value lookup for RLM; key = CO[C@H](C)C(=O)N[C@@H](Cc1ccc2c(c1)OCO2)[C@H](O)CN[C@H]1CC2(CCC2)Oc2c1cc(CC(C)C)nc2Cl
178

Param item: COCC(=O)N[C@@H](Cc1cc(F)cc(F)c1)[C@H](O)CN[C@H]1CC2(CCC2)Oc2c(-c3cncn3C)cc(CC(C)C)cc21
209

Param item: COCC(=O)N[C@@H](Cc1cc(F)cc(F)c1)[C@H](O)CN[C@H]1CC2(CCC2)Oc2c1cc(CC(C)(C)C)nc2-c1ccc2c(c1)OCO2
209

Further cases:
Value lookup for RLM; key = CC(=O)N[C@@H](Cc1cccc(-c2ccncc2)c1)[C@H](O)CN[C@H]1CC2(CCC2)Oc2ccc(CC(C)(C)C)cc21
344

Param item: COCC(=O)N[C@@H](Cc1cc(F)cc(-c2nccs2)c1)[C@H](O)CN[C@H]1CC2(CCC2)Oc2ncc(CC(C)(C)F)cc21
38

Param item: CO[C@H](C)C(=O)N[C@@H](Cc1cc(F)cc(-c2nccs2)c1)[C@H](O)CN[C@H]1CC2(CCC2)Oc2ncc(CC(C)(C)C)cc21
59

Param item: CC(=O)N[C@@H](Cc1cccc(-c2cccnc2)c1)[C@H](O)CN[C@H]1CC2(CCC2)Oc2ncc(CC(C)(C)C)cc21
601

Param item: CC(=O)N[C@@H](Cc1cc(F)cc(F)c1)[C@H](O)CN[C@H]1CC2(CCC2)Oc2c1cc(C1CC1)cc2-n1ccnc1
36

Param item: COCC(=O)N[C@@H](Cc1cccc(F)c1)[C@H](O)CN[C@H]1CC2(CCC2)Oc2c(-c3ccncc3)cc(CC(C)C)cc21
72

Source: patent US8163909B2
